Each record here notes measured %Inh.
system: INSRR; details: concentration: 1 μM, replicates: in singlicate; n = 1;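 further: KINOMEscan kinase panel screen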

| molecule | testSystem | %Inh |
| --- | --- | --- |
| O=C(NCCNc1ccnc(Nc2ccc(F)cc2)n1)Nc1ccccc1F | INSRR | 0% |
| Nc1nccc(-c2c(-c3ccc(F)cc3)ncn2C2CCN(CC(F)(F)F)CC2)n1 | INSRR | 21% |
| Cc1ccc(NC(=O)c2ccnc(N3CCN(C)CC3)c2)cc1-c1ccc(C(=O)NCC2CC2)cc1 | INSRR | 0% |
| C[C@@H](Oc1cc(-n2cnc3ccc(NC(=O)NC(C)(C)C)cc32)sc1C(N)=O)c1ccccc1Cl | INSRR | 0% |
| NS(=O)(=O)CCc1cccc(Nc2nccc(-c3c(-c4cccc(NC(=O)c5c(F)cccc5F)c4)nn4ccccc34)n2)c1 | INSRR | 62% |
| O=C(NOCC1CC1)c1ccc(F)c(F)c1Nc1ccc(I)cc1Cl | INSRR | 0% |
| Cn1ccc2ncnc(Oc3ccc(NC(=O)Nc4ccncc4)c(Cl)c3)c21 | INSRR | 0% |
| NS(=O)(=O)c1cccc(-c2ccc3ncc(N4CCOCC4)nc3c2)c1 | INSRR | 0% |
| CCc1nc(-c2cccc(C)c2)c(-c2ccnc(NCc3ccccc3)c2)s1 | INSRR | 9% |
| Cc1nnc(-c2ccc3ncc(-c4ccc(S(C)=O)cc4)n3c2)o1 (centres unmarked) | INSRR | 0% |
| Fc1ccc(-c2ncn(CCCN3CCOCC3)c2-c2cccnc2)cc1 | INSRR | 8% |
| Cn1cc(-c2ccc3c(c2)CCN3C(=O)Cc2ccccc2Cl)c2c(N)ncnc21 | INSRR | 90.5% |
| CSc1ccc(-c2cc3ncnc(SCC(=O)O)c3s2)cc1 | INSRR | 11% |
| COc1ccc(Nc2nccc(N3CCC(NC(=O)Nc4cccc(C(C)=O)c4)C3)n2)cc1 (centres unmarked) | INSRR | 0% |
| COc1ccc(Nc2ncc(C#N)c(Nc3ccccc3C(N)=O)n2)cc1N1CCN(C)CC1.Cl | INSRR | 100% |
| CN(C1=C(c2ccccc2)C(=O)NC1=O)c1ccccc1 | INSRR | 0% |
| Cc1nnc(-c2ccc3occ(-c4ccc(C(C)O)cc4)c3c2)o1 (centres unmarked) | INSRR | 6% |
